Molecular target: human FPR2 (Homo sapiens (Human))
Sequence (P25090 whole entry): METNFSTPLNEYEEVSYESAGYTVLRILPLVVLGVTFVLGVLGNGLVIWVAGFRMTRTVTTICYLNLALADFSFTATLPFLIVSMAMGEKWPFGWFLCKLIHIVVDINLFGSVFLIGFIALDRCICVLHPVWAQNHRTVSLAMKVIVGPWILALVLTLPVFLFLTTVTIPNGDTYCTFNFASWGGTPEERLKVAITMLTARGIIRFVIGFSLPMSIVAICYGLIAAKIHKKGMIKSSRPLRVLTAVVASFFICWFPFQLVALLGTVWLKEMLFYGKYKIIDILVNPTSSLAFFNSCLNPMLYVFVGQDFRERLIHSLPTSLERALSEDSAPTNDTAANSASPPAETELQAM
Experiment: FPR2 cyclic adenosine monophosphate (cAMP) assay in CHO cells overexpressing human FPR2
Details: forskolin 5 μM, inhibition of cAMP production, read-out: hFPR2 cAMP2 EC50
Protocol: N-formyl peptide receptors (FPRs) are a family of chemo attractant receptors that facilitate leukocyte response during inflammation. FPRs belong to the seven-transmembrane G protein-coupled receptor superfamily and are linked to inhibitory G-proteins (Gi). […] FPR2 and FPR1 Cyclic Adenosine Monophosphate (cAMP) Assays. […] The level of intracellular cAMP was determined using the HTRF HiRange cAMP assay reagent kit (Cisbio) according to manufacturer's instruction. […]
pEC50: −log10 of the molar value.
Measurement type: pEC50

> print(dat)
                                   molecule                        system.name  measurement.type  experimental.result
1  COc1c(-c2ccccc2CO)ccc(N2CC[C@@H](NC(=O)Nc3ccc(Cl)cc3F)C2=O)c1F  human FPR2 (Homo sapiens (Human))             pEC50                 8.07
